- system.under.test: T1, mRBM20(513-621) V537I (Mus musculus, UniProt Q3UQS8 513-621, V537I)
- T1 sequence: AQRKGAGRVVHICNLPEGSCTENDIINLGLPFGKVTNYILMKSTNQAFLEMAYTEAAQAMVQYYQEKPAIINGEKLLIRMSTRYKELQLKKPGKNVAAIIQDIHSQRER
- test.details: ITC
quantity.kind: Kd (µM)
One number for each entry, in µM.

Query: // Kd lookup, key: AUCUUA (ssRNA)
Reply: 10.3
